Recorded values, source PubChem BioAssay (NCI).

# System: RPMI-8226 leukemia
# Test name: NCI-60 one-dose screen, 48 h (100 = growth as untreated, 0 = no growth, -100 = all killed)
# Cond: 10 µM unless noted
# Procedure: Growth inhibition of the RPMI-8226 human tumor cell line is measured as a screen for anti-cancer activity. Cells are grown in 96 well plates and exposed to the test compound for 48 hours. Compounds are tested at a single concentration, which is 10^-5 M for most compounds. The reported endpoint is percent growth (GI% or GIPRCNT), where numbers from 0 - 100% represent growth inhibition, and numbers from -100% - 0 represent cell death. For example, a value of 40 represents 60% growth inhibition. […]
This is part of a sample that, as a whole, favours compounds with a hit. Of some 83,000 tested, about 20% had one in any assay.
Label Condition met when growth is at or above 70%; otherwise label Condition not met.

Compound	Answer label
COc1cc(-c2nc(SCc3ccc(C)cc3)[nH]c(=O)c2C#N)ccc1OCc1ccccc1	Condition met
Cn1cc2c(c1)-c1c(sc3nc(-c4ccc(NC(=O)Nc5cc(C(C)(C)C)on5)cc4)cn13)CC2	Condition not met
O=[N+]([O-])c1ccc(-c2nnc(SCc3ccc(O)c4ncccc34)n2-c2ccccc2)cc1	Condition not met
COc1ccc(NC(=O)[C@H](C)N)cc1C(=O)Nc1cccc(-c2cc(=O)c3c(OC)c(OC)c(OC)cc3o2)c1	Condition not met
COc1ccc(/C=N/Nc2nc(Nc3ccccc3)nc(Nc3ccc(S(N)(=O)=O)cc3)n2)cc1	Condition not met
CN1CCN(c2nc(-c3cnc4ccccc4n3)cc3ccccc23)CC1	Condition not met
CCCCCCNC(=O)Oc1ccc(/C(=C(/C)c2ccccc2)c2ccc(OCCN(C)C)cc2)cc1	Condition not met
Oc1ccc(CSc2nnc(-c3ccc(Br)cc3)o2)c2cccnc12	Condition not met
N/C(=N\c1nc2ccc([N+](=O)[O-])cc2s1)C(Cl)(Cl)Cl	Condition not met
Cc1csc(Nc2cccc(Nc3nc(C)cs3)c2)n1	Condition not met
NS(=O)(=O)c1ccc(-n2cc(CC=O)nn2)cc1	Condition met
COc1ccc(/C(C)=C(\c2ccc(Cl)cc2)c2ccc(OCCN)cc2)cc1	Condition not met
O=C1NC(=O)/C(=C/c2ccc(OCc3cc4ccccc4nc3Cl)cc2)S1	Condition met
O=C(NCCNc1cc(-c2cn(-c3ccccc3)nc2-c2cccc(O)c2)ccn1)Nc1ccc(Cl)c(C(F)(F)F)c1	Condition not met
CCCCCCNC(=O)Oc1ccc(/C(=C(/C)c2ccc(Cl)cc2)c2ccc(OCCN3CCCC3)cc2)cc1	Condition not met
CCc1ccc(NC(=O)N[C@@H](Cc2cccc(F)c2)C(=O)N[C@@H]2C(=O)N3CCC[C@H]3C(=O)N3CCCC[C@H]3C(=O)N[C@@H](C)C(=O)N3C[C@H](C)C[C@H]3C(=O)O[C@H]2C)c(F)c1	Condition not met
O=C(COc1ccc(C2SCC(=O)N2c2ccccc2)cc1)c1ccccc1 (stereo not given)	Condition met
